study.target: Serine/threonine-protein kinase pim-2 (Homo sapiens); note: in the data inactive means no Kd found up to 30 µM
Sequence (Q9P1W9 whole entry): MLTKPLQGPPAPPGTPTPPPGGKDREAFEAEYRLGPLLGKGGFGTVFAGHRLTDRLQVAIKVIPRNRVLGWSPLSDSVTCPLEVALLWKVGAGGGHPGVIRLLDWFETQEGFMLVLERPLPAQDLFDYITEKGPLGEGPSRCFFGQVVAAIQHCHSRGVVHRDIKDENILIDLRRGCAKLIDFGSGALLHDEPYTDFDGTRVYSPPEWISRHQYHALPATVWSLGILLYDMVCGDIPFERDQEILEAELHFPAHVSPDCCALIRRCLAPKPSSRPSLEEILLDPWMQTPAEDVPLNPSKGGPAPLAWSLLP
Activity calls are given as the source filed them.
Please reply with one of these outcomes: active, inactive

Outcome logged for `COc1cccc2cc(-c3nc([C@H]4CC[C@H](C(=O)O)CC4)n4ncnc(N)c34)[nH]c12` in this assay:
inactive

Can you check COc1ccc(-c2ccc3ncc4c(c3c2)n(-c2ccc(N3CCNCC3)c(C(F)(F)F)c2)c(=O)n4C)cn1 [BGT-226 FREE BASE] next?
inactive

Thanks! And `N#CCNC(=O)c1ccc(-c2ccnc(Nc3ccc(N4CCOCC4)cc3)n2)cc1` ?
inactive

Also `COCCN1CCN(Cc2ccc(-c3n[nH]c4c3C(=O)c3c(NC(=O)NN5CCOCC5)cccc3-4)cc2)CC1` , if possible.
active
